Here the recorded melting point is given for each entry.

These recorded examples may help you get a feel for the data.
Compound: Oc1ccc(Nc2cc(Cl)ncn2)cc1
Observed result: 241 to 244 °C

Compound: COC(=O)c1ccc2[nH]cc(C3=CCN(C)CC3)c2c1
Observed result: 202 to 204 °C

Compound: O=C(N[C@H](Cc1ccccc1)[C@H](O)C(=O)O)OCc1ccccc1
Observed result: 154 to 155 °C

Compound: CCNC(=O)c1cc(C)c(C(c2cc(F)ccc2F)S(=O)(=O)c2ccc(F)cc2)cn1 (stereo not given)
Observed result: 191 to 193 °C

Compound: CCOC(=O)c1c(-c2ccccc2)n(-c2ccc(OC)cc2)c2ccccc2c1=O
Observed result: 246 to 247 °C

Can you share its melting point? I mean this compound: N#CCNC(=O)c1ccco1
85 to 93 °C

Same read-out for Nc1ccccc1C(=O)OCCN1CCN(c2cccc(Cl)c2)CC1 ?
76 °C

Consider next the compound COc1cc2ncc(C#N)c(Nc3ccc4[nH]c(=O)sc4c3)c2cc1OC in the same way.
285 to 287 °C

What would you report for CCOC(=O)[C@@H]1CCCN1C(=O)C1=Cc2ccccc2CC1 ?
55 to 57 °C

Can you check CCOC(=O)[C@@H](O)[C@@H]1OC(=O)c2c1cc(OC)c(OC)c2OC next?
111 to 112 °C

* * *

Recorded melting point by entry

Sample answers from the record:
Compound: COc1ccc2c(c1O)C13CCN(C)C(C2)C1C=C(C)C(=O)C3 (stereo not given)
melting point: 183 to 185 °C
//
Compound: CCOC(=O)NC(C)CC(NC(=O)OCC)NC(=O)OCC (stereo not given)
melting point: 103 to 105 °C
//
Compound: CCN(CC)CCNC(=O)c1cc(NS(C)(=O)=O)c(Cl)cc1OC
melting point: 123 to 124 °C
//
Compound: O=[N+]([O-])c1ccc(CN2CCN(c3ccc(F)cc3)CC2)cc1
melting point: 139 to 141 °C
//
Compound: COc1ccc(C2=NN(C3CCCCCCC3)C(=O)[C@H]3CC=CC[C@@H]23)cc1OC (relative stereo)
melting point: 75 to 77 °C
//
Compound: CCC[C@@H]1COC(=O)N1c1nc(-c2ccc(C#N)cc2)cs1
melting point: 131 to 133 °C
//
Compound: O=C(CCCCCOc1cc(-c2ccccc2)c2ccccc2n1)N1CCCC1
melting point: 52 to 54 °C
//
Compound: CCOC(=O)c1ccc2c(CCN)c[nH]c2c1
melting point: 169 to 172 °C

Looking for the measured melting point of Cc1nc2c3c(c(C(=O)N(C)C)cc2n1C)CC[C@@H](c1ccccc1F)O3 , can you help?
199 to 201 °C

Proceed to CCOc1cc(C(CC(=O)O)N2Cc3ccccc3C2=O)ccc1OC (stereo not given)
194 °C

* * *

Consider the following compounds and their measured melting point readings.

# melting point lookup, item CN=C(NC#N)NCCSCc1ncccc1Br
114 to 116 °C

* * *

Known melting point of a selection of molecules

Here's what some known entries look like.
Molecule: CSc1ccc(-c2cc(Br)nn2-c2ccc(F)cc2)cc1
Recorded endpoint: melting point
Observed result: 98 to 99 °C
--
Molecule: Nc1cc(Br)nc(Br)c1
Recorded endpoint: melting point
Observed result: 184 to 186 °C
--
Molecule: O=C(CC1CCCCCC1)c1cn(CCO)c2cccc(Cl)c12
Recorded endpoint: melting point
Observed result: 113 to 119 °C

What value of melting point has been recorded for this entry: c1ccc(-c2ccc(C34CCCN(CC3)C4)nn2)cc1 (stereo unspecified)
133 to 134 °C

Then what about the molecule CC(C)=CCCC(C)=CCCC(C)=Cc1ccc(C(=O)O)cc1 ?
92 to 92.5 °C

Then this molecule: CCOC(=O)CCCCC(=O)c1c(CBr)n(C(C)=O)c(=O)n1C(C)=O
114 to 115 °C

Please give the result for O=P(Oc1ccc(-c2ccccc2)cc1)(Oc1ccc(-c2ccccc2)cc1)Oc1ccc(-c2ccccc2)cc1 too.
137 °C

And Cn1c(-c2nnc3ccc(NC=O)nn23)cnc1[N+](=O)[O-] ?
224 to 226 °C

* * *

Measured melting point of individual entries

Compound: Cc1cc(N2CCN(CCc3ccc(NS(C)(=O)=O)cc3)CC2)ccc1NS(C)(=O)=O
Observed result: 235 to 237 °C
--
Compound: CN1C2C=C(c3c[nH]c4ccc([N+](=O)[O-])cc34)CC1CC2 (stereo not drawn)
Observed result: 234 to 236 °C
--
Compound: CS(=O)(=O)c1ccc(C(CC2CCCC2)C(=O)Nc2ncc(C(=O)O)s2)cc1 (stereo not drawn)
Observed result: 172 to 176 °C

Which melting point is reported for this compound? O=C(Oc1ccc(Cl)c2c(=O)c3ccccc3sc12)c1ccccc1
177 to 178 °C

Similarly, Nc1nn2cc(-c3ccc([N+](=O)[O-])o3)nc2s1 ?
257 to 258 °C

// next record CC(/C=C/CC(C)c1cc(C(C)(C)C)cc(C(C)(C)C)c1)=C\C(=O)O (stereo not drawn)
127 to 128 °C

Same for CC(C)[C@H](NC(=O)N(C)Cc1cscn1)C(=O)N[C@@H](Cc1ccccc1)C[C@H](O)[C@H](Cc1ccccc1)NC(=O)OCc1cccnc1
69 to 73 °C

Also need CC#CCOc1ccc(S(=O)C(C(=O)NO)c2ccccc2)cc1 (stereo not drawn) , thanks.
55 °C

* * *

Measured melting point, listed per entry for reference.

Compound: COc1ccc2c(N)c(C(=O)Nc3ccc(Cl)cc3Cl)oc2c1
melting point: 187 to 188 °C
//
Compound: COc1cc2c3c(c1)c(Cl)c(C(=O)N1CCc4ccccc41)c(=O)n3CCO2
melting point: 158 to 160 °C

Given the compound CS(=O)(=O)c1ccc(-c2cnn(-c3cccc(Cl)c3)c(=O)c2Oc2cccc(F)c2)cc1 , what is its reported melting point?
178 to 180 °C

Same read-out for CCC(C)N(C)C(=O)c1cc2ccsc2c(-c2ccccc2)n1 (stereo not given) ?
117 °C

* * *

Recorded endpoint: melting point

Reference set (8 entries):
Molecule: COc1ccc2oc(=O)cc(Oc3c(Cl)cccc3Cl)c2c1
Observed result: 170 to 171 °C
//
Molecule: O=C(CN1CCCCC1)Nc1ccc(-c2cc(-c3c[nH]nc3-c3ccccn3)ccn2)cc1
Observed result: 180 °C
//
Molecule: Cc1cc(N2CC=CCC2)nn2cnnc12
Observed result: 103 to 106 °C
//
Molecule: CCCOC(=O)c1cc(-c2ccc(Cl)cc2)cnc1C
Observed result: 54 to 57 °C
//
Molecule: CNc1c([N+](=O)[O-])cnc2ccccc12
Observed result: 168 to 170 °C
//
Molecule: CCCCCOc1c(OC)cc([N+](=O)[O-])c2nccc(C)c12
Observed result: 54 to 55 °C
//
Molecule: O=C(O)C1=Cc2cc([N+](=O)[O-])ccc2OC1C(F)(F)F (stereo not given)
Observed result: 187 to 189 °C
//
Molecule: CCn1c(C)c(C2(c3c(-c4ccccc4)[nH]c4ccccc34)OC(=O)C(Cl)=C2Cl)c2ccccc21 (stereo not given)
Observed result: 225 °C

Data request, read-out melting point, for Nc1ncc(I)cc1[N+](=O)[O-]
213 to 215 °C

# repeat for O=C1NC(=O)C(Cc2ccc(OCCON=Cc3cncc(-c4ccccc4)c3)cc2)S1 (stereo not given)
160 to 161 °C

* * *

Recorded endpoint: melting point

Look over these answered cases.
Compound: Cc1ccc(C)n1-c1ccc(F)c([N+](=O)[O-])c1
Recorded endpoint: melting point
Observed result: 99 to 101 °C
//
Compound: CSC1=CC2=CN(S)NN2C(SC)=N1
Recorded endpoint: melting point
Observed result: 250 to 252 °C
//
Compound: Brc1ccc(-c2ccc(-c3ccc(Br)o3)cc2)o1
Recorded endpoint: melting point
Observed result: 155 to 157 °C
//
Compound: C[C@@](O)(C(=O)N1CCC(C(=O)c2ccc(F)cc2)CC1)C(F)(F)F
Recorded endpoint: melting point
Observed result: 78 to 79 °C
//
Compound: N#CSCC1CC(=O)N(c2ccc(F)cc2)C1=O (stereo unspecified)
Recorded endpoint: melting point
Observed result: 88 °C

// switching to the query compound
Recorded melting point for Cc1ccc(CC(=O)O)s1 , please?
54 °C

* * *

Recorded endpoint: melting point

Compound: N#CSc1c(-c2ccccc2)[nH]c(Cl)c1C#N
Observed result: 159 °C
--
Compound: C[C@H]1N(C(=O)c2ccc(OCC(F)(F)C(F)F)cc2)CC(O)O[C@@]1(Cn1cncn1)c1ccc(F)cc1F (relative stereo)
Observed result: 209 to 210 °C

Suppose we examine the compound CC(=O)C1(Nc2ccccc2)CCN(C(C)C)CC1 ; what melting point value has been reported?
107 °C

Please answer likewise for CC(C)(C)C(=O)CNC(=O)c1nn(-c2ccc(F)cc2F)c2c1C1CCC2C1 (stereo not given)
42 to 43 °C

Can you check C/C(=C\CC1OC(=O)NC1=O)c1cccc(OCc2nc(-c3ccc(OCC(F)(F)F)cc3)oc2C)c1 (stereo not given) next?
120 to 121 °C
